The values you see were collected from patent US7226741B2.

assayed-target: HIV-1 Vif protein (Vif-Vif interaction) (Human immunodeficiency virus type 1 group M subtype B, UniProt P12504)
Construct: The vif gene also was inserted into pGEX vector for in vitro expression and isolation of GST-Vif fusion protein; The PCR-generated wild-type vif gene and its mutants were then inserted into pCITE-4a vector; made in house; host or cells: GST-Vif: E. coli BL21 (pGEX); 35S-Vif: in vitro translation from pCITE-4a (Novagen kit)
Sequence (P12504 whole entry, the tested form may be a part): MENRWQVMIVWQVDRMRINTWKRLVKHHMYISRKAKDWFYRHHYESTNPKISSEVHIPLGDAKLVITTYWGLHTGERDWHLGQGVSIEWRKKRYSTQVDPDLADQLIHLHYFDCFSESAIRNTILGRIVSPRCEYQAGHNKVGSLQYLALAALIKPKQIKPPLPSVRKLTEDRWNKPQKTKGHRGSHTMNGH
Type: binding
condition: peptide added to the Vif-Vif binding reaction; no peptide (GST pull-down) designated as 100%
Rule: 35S-Vif binds with GST-Vif (%) Mean ± SD under 60% gives no, otherwise yes.

[
  {
    "sequence-chain": "SNQGGSPLPRSV [VMI7]",
    "classification": "no"
  },
  {
    "sequence-chain": "KKIKPPLPSVTKLTE [Vif157-171]",
    "classification": "no"
  },
  {
    "sequence-chain": "ESAIRKAILGHIVSP [Vif117-131]",
    "classification": "yes"
  },
  {
    "sequence-chain": "PPLPSVTKLTEDRWN [Vif161-175]",
    "classification": "yes"
  },
  {
    "sequence-chain": "KPKKIKPPLPSV [Vif155-166]",
    "classification": "no"
  },
  {
    "sequence-chain": "SVSVGMKPSPRP (Synthetic peptide containing PXP motif) [VMI5, 12-mer peptide containing a PXP motif]",
    "classification": "no"
  }
]
